Item-by-item account of Target Binding
Biological target: T1, FcεRI-MBP (UniProt P12319 26-205)
T1 construct: Produced in E. coli; order of the two parts is printed both ways (mbp-FcεRI, FcεRI-MBP); also called mbp-FcεRI; mbpFcεRI
T1 sequence (looked up): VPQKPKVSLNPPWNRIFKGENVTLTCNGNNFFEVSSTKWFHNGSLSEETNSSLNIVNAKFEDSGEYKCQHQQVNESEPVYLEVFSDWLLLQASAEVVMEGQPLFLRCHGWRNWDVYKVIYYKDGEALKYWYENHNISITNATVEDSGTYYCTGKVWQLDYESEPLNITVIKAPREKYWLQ
Assay: phage ELISA on target-coated Maxisorp wells, anti-M13 pVIII-HRP
endpoint: Target Binding

>>> reported_value("FG6+6 phage clone MNPRMEM / HPDSD / RLWTLWMARWRW (designed binder, not shown: 6-his, myc tag and C-terminal domain of M13 pIII (phage display fusion)) TIPEIIIKVRGTQVVGSDMTVIVEFMNPRMEMLRNVWVHLDGPGVTRPMKKMFREIHPDSDVQWEEVVRPWVSGHRKLIASMSRLWTLWMARWRWVYGELDVQIQRR")
2.35
>>> reported_value("FG6+6 phage clone TNPLRGT / PPNVK / GLSTAGRWKRVR (designed binder, not shown: 6-his, myc tag and C-terminal domain of M13 pIII (phage display fusion)) TIPEIIIKVRGTQVVGSDMTVIVEFTNPLRGTLRNVWVHLDGPGVTRPMKKMFREIPPNVKVQWEEVVRPWVSGHRKLIASMSGLSTAGRWKRVRVYGELDVQIQRR")
4
>>> reported_value("FG6+6 phage clone GNPTKET / RPRSM / YRPRRGGMRLRH (designed binder, not shown: 6-his, myc tag and C-terminal domain of M13 pIII (phage display fusion)) TIPEIIIKVRGTQVVGSDMTVIVEFGNPTKETLRNVWVHLDGPGVTRPMKKMFREIRPRSMVQWEEVVRPWVSGHRKLIASMSYRPRRGGMRLRHVYGELDVQIQRR")
4
>>> reported_value("FG6+6 phage clone TNPRRRV / RPRST / WNSRWPAPTRRR (designed binder, not shown: 6-his, myc tag and C-terminal domain of M13 pIII (phage display fusion)) TIPEIIIKVRGTQVVGSDMTVIVEFTNPRRRVLRNVWVHLDGPGVTRPMKKMFREIRPRSTVQWEEVVRPWVSGHRKLIASMSWNSRWPAPTRRRVYGELDVQIQRR")
1.73
>>> reported_value("FG6+6 phage clone SNPLSRP / RPHSN / SRSLWLSIGKRH (designed binder, not shown: 6-his, myc tag and C-terminal domain of M13 pIII (phage display fusion)) TIPEIIIKVRGTQVVGSDMTVIVEFSNPLSRPLRNVWVHLDGPGVTRPMKKMFREIRPHSNVQWEEVVRPWVSGHRKLIASMSSRSLWLSIGKRHVYGELDVQIQRR")
3.31
